Parameter polymerase ribozyme fitness (log ratio): see the listing below.
B1: TPR 5TU (parent)
chain: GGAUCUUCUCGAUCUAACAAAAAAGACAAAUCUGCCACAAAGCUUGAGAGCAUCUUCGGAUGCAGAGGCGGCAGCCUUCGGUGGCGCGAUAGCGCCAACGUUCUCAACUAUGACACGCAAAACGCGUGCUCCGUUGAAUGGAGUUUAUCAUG

variants of: B1; experiment: polymerase ribozyme fitness, log enrichment relative to wild type (log ratio); higher = more active; in vitro selection for triplet polymerase activity
This sample holds only a part of the variants without activity.

[[record]]
variant_id = "G81A G152U"
test_readout = "polymerase ribozyme fitness (log ratio)"
result_value = -3.09

[[record]]
variant_id = "U7G U15A A41U A66C G94U C99G G133U U148G"
test_readout = "polymerase ribozyme fitness (log ratio)"
result_value = "≤ -4.2"

[[record]]
variant_id = "A40U C87U G88U"
test_readout = "polymerase ribozyme fitness (log ratio)"
result_value = "≤ -4.2"


Consider U56A C57U G86C A98C G141A G152A . Its measured polymerase ribozyme fitness (log ratio) is -3.31

Consider A16G A20U C118U A137U . Its measured polymerase ribozyme fitness (log ratio) is ≤ -4.2

Consider A23G A52G C57U C95A C96G U102G A107G G141A . Its measured polymerase ribozyme fitness (log ratio) is ≤ -4.2

Consider G83C G126A . Its measured polymerase ribozyme fitness (log ratio) is 0.0538

Where do these numbers come from? They come from the RNAGym collection of RNA variant scans (doi:10.1073/pnas.2313332121).
